Quick reference: σ1/σ2 Ratio of the listed items.
biological target: σ2 receptor (Rattus norvegicus); construct: from tissue; host or cells: rat liver membrane homogenates; assay: σ2 receptor binding assay, [3H]DTG or [3H]RHM-1; settings: Ki for σ1/Ki for σ2
Counter-ions that a name gives are not always drawn.
Quantity Kind: σ1/σ2 Ratio

1) COc1ccc(C)cc1NC(=O)OC1CC2CCCC(C1)N2CCCCNCc1cccc(F)c1 (centres unmarked) [Compound 2b]
0.07
2) COc1ccc(C)cc1NC(=O)O[C@H]1C[C@H]2CCC[C@@H](C1)N2CCCCNCc1cccc(I)c1 [Compound 2c]
52.77
3) COc1ccc(C)cc1NC(=O)OC1CC2CCCC(C1)N2CCCCCCNC(=O)c1ccc(Cl)cc1 (centres unmarked) [Compound 4a]
392
4) COc1ccc(C)cc1NC(=O)OC1CC2CCCC(C1)N2CCCCCCNCc1ccc(F)cc1 (centres unmarked) [Compound 3e]
0.01
5) COc1ccc(C)cc1NC(=O)OC1CC2CCCC(C1)N2CCCCCCNCc1ccc(Br)cc1 (centres unmarked) [Compound 3d]
4.35
6) COc1ccc(C)cc1NC(=O)OC1CC2CCCC(C1)N2CCCCCCNS(=O)(=O)c1cccc2c(N(C)C)cccc12 (centres unmarked) [Compound 9]
85.43
7) COc1ccc(C)cc1NC(=O)OC1CC2CCCC(C1)N2CCCCCCCCCCN (centres unmarked) [Compound 1c, hydrochloride]
19
8) COc1ccc(C)cc1NC(=O)OC1CC2CCCC(C1)N2CCCCCCNCc1cccc(F)c1 (centres unmarked) [Compound 3b]
0.09

====

target: σ2 receptor (Rattus norvegicus); construct: from tissue; host or cells: rat liver membrane homogenates; test: σ2 receptor binding assay, [3H]DTG or [3H]RHM-1; conditions: Ki σ2, inhibiting binding of [3H]DTG or [3H]RHM-1 to rat liver homogenates; mean ± SEM
Counter-ions that a name gives are not always drawn.
Please assign not fulfilled whenever Ki is at or above 10 nM, and fulfilled whenever it is below.

1. COc1ccc(C)cc1NC(=O)O[C@H]1C[C@H]2CCC[C@@H](C1)N2CCCCNCc1cccc(I)c1 [Compound 2c]
fulfilled
2. COc1ccc(C)cc1NC(=O)OC1CC2CCCC(C1)N2CCCCCCNCc1ccc(I)cc1 (stereo not shown) [Compound 3f]
not fulfilled
3. COc1ccc(C)cc1NC(=O)OC1CC2CCCC(C1)N2CCCCN (stereo not shown) [Compound 1a, hydrochloride]
not fulfilled
4. COc1ccc(C)cc1NC(=O)OC1CC2CCCC(C1)N2CCCCCCNCc1ccc(F)cc1 (stereo not shown) [Compound 3e]
not fulfilled
5. COc1ccc(C)cc1NC(=O)OC1CC2CCCC(C1)N2CCCCCCNCc1cccc(F)c1 (stereo not shown) [Compound 3b]
fulfilled
6. COc1ccc(C)cc1NC(=O)OC1CC2CCCC(C1)N2CCCCCCNC(=O)c1ccc(Cl)cc1 (stereo not shown) [Compound 4a]
fulfilled
7. COc1ccc(C)cc1NC(=O)OC1CC2CCCC(C1)N2CCCCNCc1cccc(Br)c1 (stereo not shown) [Compound 2a]
fulfilled
8. COc1ccc(C)cc1NC(=O)O[C@H]1C[C@H]2CCC[C@@H](C1)N2CCCCCCNCc1cccc(I)c1 [Compound 3c]
not fulfilled
9. COc1ccc(C)cc1NC(=O)O[C@H]1C[C@H]2CCC[C@@H](C1)N2Cc1ccc(N(C)C)cc1 [WC-II-26]
not fulfilled
10. COc1ccc(C)cc1NC(=O)OC1CC2CCCC(C1)N2CCCCCCNCc1cccc(Br)c1 (stereo not shown) [Compound 3a]
fulfilled
11. COc1ccc(C)cc1NC(=O)OC1CC2CCCC(C1)N2CCCCNCc1ccc(I)cc1 (stereo not shown) [Compound 2f]
fulfilled
12. COc1ccc(C)cc1NC(=O)OC1CC2CCCC(C1)N2CCCCNCc1cccc(F)c1 (stereo not shown) [Compound 2b]
fulfilled
13. COc1ccc(C)cc1NC(=O)OC1CC2CCCC(C1)N2CCCCNCc1ccc(F)cc1 (stereo not shown) [Compound 2e]
not fulfilled
14. O[C@@H](CN1C2CCC1CC(c1ccccc1)C2)c1cccc(Br)c1 (stereo partly shown) [RHM-I-138]
not fulfilled
15. COc1ccc(C)cc1NC(=O)OC1CC2CCCC(C1)N2CCCCNCc1ccc(Br)cc1 (stereo not shown) [Compound 2d]
fulfilled

====

molecular target: UniProtKB Q60492; assay: σ1 receptor binding assay, [3H](+)-pentazocine; settings: read-out: Ki for σ1; as listed in Table 2
Sequence (Q60492 whole entry): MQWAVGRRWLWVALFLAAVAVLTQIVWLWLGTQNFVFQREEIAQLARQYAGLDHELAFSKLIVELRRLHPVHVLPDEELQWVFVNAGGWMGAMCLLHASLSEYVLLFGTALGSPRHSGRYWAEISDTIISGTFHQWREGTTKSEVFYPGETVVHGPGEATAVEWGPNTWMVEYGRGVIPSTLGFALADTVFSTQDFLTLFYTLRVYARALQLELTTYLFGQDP
Quantity Kind: Ki (nM)

1) O[C@@H](CN1C2CCC1CC(c1ccccc1)C2)c1cccc(Br)c1 (stereo partly shown)
544

====

# Lookup of reported pKi keyed by entry
biological target: σ2 receptor (Rattus norvegicus, UniProt Q5U3Y7); construct: from tissue; host or cells: rat liver membrane homogenates; experiment: σ2 receptor binding assay, [3H]DTG or [3H]RHM-1; conditions: inhibiting binding of [3H]DTG or [3H]RHM-1 to rat liver homogenates; mean ± SEM; read-out: Ki σ2
Sequence (Q5U3Y7 whole entry): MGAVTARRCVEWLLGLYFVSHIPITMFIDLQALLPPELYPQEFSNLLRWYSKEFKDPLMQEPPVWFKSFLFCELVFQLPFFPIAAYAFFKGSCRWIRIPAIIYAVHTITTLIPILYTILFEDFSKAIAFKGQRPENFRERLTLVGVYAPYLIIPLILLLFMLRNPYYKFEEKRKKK
pKi: −log10 of the molar value. Structures can show the parent of a compound that is named as a salt.
Quantity Kind: pKi

1. COc1ccc(C)cc1NC(=O)O[C@H]1C[C@H]2CCC[C@@H](C1)N2CCCCCCN.Cl [Compound 1b, hydrochloride]
8.28
2. COc1ccc(C)cc1NC(=O)OC1C[C@H]2CCC[C@@H](C1)N2CCCCCCN (stereo partly drawn)
8.28
3. COc1ccc(C)cc1NC(=O)OC1CC2CCCC(C1)N2CCCCCCCCCCN (stereo not drawn) [Compound 1c, hydrochloride]
8.15

====

system: MDA-MB-435 breast cancer cells; assay: Cytotoxicity assay (MTS) in MDA-MB-435 cells; type: cell-based; conditions: Homo sapiens; MDA-MB-435, 48 hours; read-out: IC50 (μM, 48 hours)
Quantity Kind: IC50 (µM)

1) COc1ccc(C)cc1NC(=O)O[C@H]1C[C@H]2CCC[C@@H](C1)N2Cc1ccc(N(C)C)cc1
43.2
2) O[C@@H](CN1C2CCC1CC(c1ccccc1)C2)c1cccc(Br)c1 (stereo partly drawn)
19
3) COc1ccc(C)cc1NC(=O)OC1CC2CCCC(C1)N2CCCCCCN (stereo not drawn)
20.6
